Method Description: folding enthalpy; higher = less favourable; fluorescence melt of hairpins on a sequencing array, two-state fit
Experimental Setup: sodium 0.088 M
The label depends only on folding enthalpy: 1 if it is at least -20 kcal/mol, 0 if it is smaller.

### Prompt In plain terms: is recorded folding enthalpy at least -20 kcal/mol for GATCATGGATATGATC ((((((....)))))) ?
### Response 0

### Prompt In plain terms: is recorded folding enthalpy at least -20 kcal/mol for GTCACCGAAAGGTCCGAC ((((((....)))..))) ?
### Response 1

### Prompt In plain terms: is recorded folding enthalpy at least -20 kcal/mol for AAGCGGAAACGCTT (((((....))))) ?
### Response 1

### Prompt In plain terms: is recorded folding enthalpy at least -20 kcal/mol for GGGGACGGAAACGTTCCC (((.(((....))).))) ?
### Response 0

### Prompt In plain terms: is recorded folding enthalpy at least -20 kcal/mol for GCAAATGAAAATTTGC ((((((....)))))) ?
### Response 0

### Prompt In plain terms: is recorded folding enthalpy at least -20 kcal/mol for GGTGGTGGAAACACCGTC (..((((....))))..) ?
### Response 0

### Prompt In plain terms: is recorded folding enthalpy at least -20 kcal/mol for GGACACCGAAAGGTTCC (((.(((....)))))) ?
### Response 0

### Prompt In plain terms: is recorded folding enthalpy at least -20 kcal/mol for GATCTCGTTAGAGATC ((((((....)))))) ?
### Response 0

### Prompt In plain terms: is recorded folding enthalpy at least -20 kcal/mol for GCACACACGAAAGTGTGC (((..(((....)))))) ?
### Response 1

### Prompt In plain terms: is recorded folding enthalpy at least -20 kcal/mol for GCTCACGAAAGTGAAAGC ((((((....)))..))) ?
### Response 0

### Prompt In plain terms: is recorded folding enthalpy at least -20 kcal/mol for GATCGTCGTCACGATC ((((((....)))))) ?
### Response 0

### Prompt In plain terms: is recorded folding enthalpy at least -20 kcal/mol for GCCAACGAAAGTTTTGGC ((((((....)))..))) ?
### Response 0

### Prompt In plain terms: is recorded folding enthalpy at least -20 kcal/mol for GCTTGAGAAATCAAGC ((((((....)))))) ?
### Response 0

### Prompt In plain terms: is recorded folding enthalpy at least -20 kcal/mol for GCCGGCGAAAGCCCGGGC ((((((....)))..))) ?
### Response 1

### Prompt In plain terms: is recorded folding enthalpy at least -20 kcal/mol for GAGGCCGAAAGGCACCTC ((((((....)))..))) ?
### Response 1

### Prompt In plain terms: is recorded folding enthalpy at least -20 kcal/mol for GATCTACTATTAGATC ((((((....)))))) ?
### Response 0

### Prompt In plain terms: is recorded folding enthalpy at least -20 kcal/mol for GCTAAAGCGAAAGCTAGC (((..(((....)))))) ?
### Response 0

### Prompt In plain terms: is recorded folding enthalpy at least -20 kcal/mol for GCGTGGCGACGC ((((....)))) ?
### Response 1

### Prompt In plain terms: is recorded folding enthalpy at least -20 kcal/mol for GATCTCAGGGAGATC ((((((...)))))) ?
### Response 0

### Prompt In plain terms: is recorded folding enthalpy at least -20 kcal/mol for GTCAGACGAAAGTCGGAC (((.(((....))).))) ?
### Response 0

### Prompt In plain terms: is recorded folding enthalpy at least -20 kcal/mol for ATACAGAAATGTAT (((((....))))) ?
### Response 1

### Prompt In plain terms: is recorded folding enthalpy at least -20 kcal/mol for GGACGCGAAAGCGGGTCC ((((((....)))..))) ?
### Response 1

### Prompt In plain terms: is recorded folding enthalpy at least -20 kcal/mol for GATGTCGGAAACGACACC (.(((((....))))).) ?
### Response 1

### Prompt In plain terms: is recorded folding enthalpy at least -20 kcal/mol for GTAGACGCGAAAGCGTAC (((..(((....)))))) ?
### Response 1

----------
Provide the reported Tm of each item.
Method Description: melting temperature; fluorescence melt of hairpins on a sequencing array, two-state fit, raised by 9.35 °C to match UV melts
Experimental Setup: sodium 0.088 M

### Prompt Fill in: Tm of GATCATATGCATGATC ((((((....)))))) is ___
### Response 48.2 °C

### Prompt Fill in: Tm of GTGAGTCCGAAAGGACAC (((..(((....)))))) is ___
### Response 49.6 °C

### Prompt Fill in: Tm of CGCGGAACTATCCGCG ((((((....)))))) is ___
### Response 68.7 °C

### Prompt Fill in: Tm of GTTCATCGAAAGATAAC (((.(((....)))))) is ___
### Response 32.3 °C

### Prompt Fill in: Tm of GCGCATACGAAAGTACGC (((..(((....)))))) is ___
### Response 44.9 °C

### Prompt Fill in: Tm of GAACACGAAAGTGATTC ((((((....))).))) is ___
### Response 37.2 °C

### Prompt Fill in: Tm of GGGGCCGAAAGGCCGCCC ((((((....)))..))) is ___
### Response 56.9 °C

### Prompt Fill in: Tm of GCCTAGCGAAAGCCTGGC (((..((....))..))) is ___
### Response 52.1 °C

### Prompt Fill in: Tm of GCAACCCCGAAAGGGTGC (((..(((....)))))) is ___
### Response 55.8 °C

### Prompt Fill in: Tm of GATCACGATTGTGATC ((((((....)))))) is ___
### Response 56.6 °C

### Prompt Fill in: Tm of GATCCTGATAAGGATC ((((((....)))))) is ___
### Response 64.4 °C

### Prompt Fill in: Tm of GATCTGAGCGCAGATC ((((((....)))))) is ___
### Response 48.5 °C

### Prompt Fill in: Tm of GCGCACGGAAACACGCGC ((((..(....)..)))) is ___
### Response 51.6 °C

### Prompt Fill in: Tm of GCGGCGTACCGC ((((....)))) is ___
### Response 64.7 °C

### Prompt Fill in: Tm of GGAGGCGGAAACGCCTTC (.(((((....))))).) is ___
### Response 57.5 °C

### Prompt Fill in: Tm of GTTCTTCGAAAGAACAAC (((.(((....))).))) is ___
### Response 32 °C

### Prompt Fill in: Tm of GAACCCGAAAGGGACTTC ((((((....)))..))) is ___
### Response 42.9 °C

### Prompt Fill in: Tm of CGCAGGAAACTGCG (((((....))))) is ___
### Response 60.3 °C

### Prompt Fill in: Tm of GTAGTCGAAAGACTATAC ((((((....)))..))) is ___
### Response 42 °C

### Prompt Fill in: Tm of GATCGTAACAACGATC ((((((....)))))) is ___
### Response 55 °C

### Prompt Fill in: Tm of GTTGGGGAAACCCAAC ((((((....)))))) is ___
### Response 60 °C

### Prompt Fill in: Tm of GACCAGCCGAAAGGCGTC (((..(((....)))))) is ___
### Response 34.5 °C

### Prompt Fill in: Tm of GCATATCGAAAGATGTGC (((.(((....))).))) is ___
### Response 55.4 °C

### Prompt Fill in: Tm of GATGACGAAAGTCTATC ((((((....))).))) is ___
### Response 39 °C

### Prompt Fill in: Tm of TCCCGGAAACGGGA (((((....))))) is ___
### Response 60.7 °C

### Prompt Fill in: Tm of GCTAACGAAAGTTGTAGC ((((((....)))..))) is ___
### Response 38.3 °C

----------
Method Description: melting temperature; fluorescence melt of hairpins on a sequencing array, two-state fit, raised by 9.35 °C to match UV melts
Experimental Setup: sodium 0.088 M
Provide the reported Tm of each item.
Express it in °C; write the number only.

### Prompt Fill in: Tm of GATCAGATAGCTGATC ((((((....)))))) is ___
### Response 46.8

### Prompt Fill in: Tm of GCCCTAGCGAAAGCTGGC (((..(((....)))))) is ___
### Response 48

### Prompt Fill in: Tm of GTTATTGGAAACAATAGC (.(((((....))))).) is ___
### Response 33.4

### Prompt Fill in: Tm of GGGTCCCGAAAGGGCCC (((.(((....)))))) is ___
### Response 68

### Prompt Fill in: Tm of GATCAATGGTTTGATC ((((((....)))))) is ___
### Response 44.7

### Prompt Fill in: Tm of GATCCATATATGGATC ((((((....)))))) is ___
### Response 55
